Molecular target: mouse TAAR1 (Mus musculus (Mouse))
Sequence (Q923Y8 whole entry): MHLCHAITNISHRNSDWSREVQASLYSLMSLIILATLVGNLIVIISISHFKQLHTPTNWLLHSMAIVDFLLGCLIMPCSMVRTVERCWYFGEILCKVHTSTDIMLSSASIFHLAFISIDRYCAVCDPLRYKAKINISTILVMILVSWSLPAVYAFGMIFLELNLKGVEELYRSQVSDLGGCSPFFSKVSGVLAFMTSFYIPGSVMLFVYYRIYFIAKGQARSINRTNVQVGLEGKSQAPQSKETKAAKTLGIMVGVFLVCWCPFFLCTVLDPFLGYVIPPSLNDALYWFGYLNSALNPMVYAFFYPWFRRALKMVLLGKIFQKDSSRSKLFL
Assay: Radioligand binding assay on mouse TAAR1
Conditions: mouse TAAR1 (first value of the cell), HEK-293 membranes; read-out: Ki (μM) mouse/rat
MEASUREMENT KIND: Ki (µM)

Answered examples (3):
Give mouse TAAR1 (Mus musculus (Mouse)) Ki for CCc1cnc(Nc2ccc(C3CNCCO3)cc2C)nc1 (racemic)
0.008

Give mouse TAAR1 (Mus musculus (Mouse)) Ki for CCCc1cnc(Nc2ccc(C3CNCCO3)cc2F)nc1 (racemic)
0.0032

Record `c1cc([C@H]2CNCCO2)ccc1Nc1ccc(C2COC2)cn1` : what is its Ki with mouse TAAR1 (Mus musculus (Mouse))?
0.011

[a] Cc1cnc(Nc2ccc([C@H]3CNCCO3)cc2)cc1Br
[b] Clc1cc(Nc2ccc([C@H]3CNCCO3)cc2)c(Cl)cn1
Of a versus b , which is the one with smaller reported Ki? Could you answer with the label of the item you picked?
a

[A] Clc1ccc2nc(Nc3ccc([C@H]4CNCCO4)cc3)ccc2c1
[B] Cc1cc(C2CNCCO2)ccc1Nc1ncc(Br)cn1 (racemic)
[C] c1cc(C2CNCCO2)ccc1Nc1ccn(CC2CC2)n1 (racemic)
[D] c1cnc(Nc2ccc([C@@H]3CNCCO3)cc2)nc1
[E] FC(F)(F)c1ccnc(Nc2ccc([C@H]3CNCCO3)cc2)c1
Ascending by Ki, please. Give the labels in the order specified.
A, E, C, B, D

[1] CCCc1cnc(Nc2ccc([C@H]3CNCCO3)cc2F)nc1
[2] Fc1ccc(CNc2ccc([C@H]3CNCCO3)cc2)cc1
[3] Cc1cc(Nc2ccc(C3CNCCO3)cc2C)ncc1Br (racemic)
[4] Clc1ccc2nc(Nc3ccc([C@H]4CNCCO4)cc3)sc2c1
[5] COCCOc1cnc(Nc2ccc([C@@H]3CNCCO3)cc2)nc1
Rank items: key Ki, increasing. Write the labels in rank order as requested.
3, 4, 1, 2, 5
